biological target: nucleolin on surface of HCT116 p53-/- cells (Homo sapiens) (UniProt P19338); experiment: flow; settings: 2'-F pyrimidines; unit inferred; DL650-labeled Ev5, HCT116 p53-/- cells; Bmax 2.064
Sequence (P19338 2-710): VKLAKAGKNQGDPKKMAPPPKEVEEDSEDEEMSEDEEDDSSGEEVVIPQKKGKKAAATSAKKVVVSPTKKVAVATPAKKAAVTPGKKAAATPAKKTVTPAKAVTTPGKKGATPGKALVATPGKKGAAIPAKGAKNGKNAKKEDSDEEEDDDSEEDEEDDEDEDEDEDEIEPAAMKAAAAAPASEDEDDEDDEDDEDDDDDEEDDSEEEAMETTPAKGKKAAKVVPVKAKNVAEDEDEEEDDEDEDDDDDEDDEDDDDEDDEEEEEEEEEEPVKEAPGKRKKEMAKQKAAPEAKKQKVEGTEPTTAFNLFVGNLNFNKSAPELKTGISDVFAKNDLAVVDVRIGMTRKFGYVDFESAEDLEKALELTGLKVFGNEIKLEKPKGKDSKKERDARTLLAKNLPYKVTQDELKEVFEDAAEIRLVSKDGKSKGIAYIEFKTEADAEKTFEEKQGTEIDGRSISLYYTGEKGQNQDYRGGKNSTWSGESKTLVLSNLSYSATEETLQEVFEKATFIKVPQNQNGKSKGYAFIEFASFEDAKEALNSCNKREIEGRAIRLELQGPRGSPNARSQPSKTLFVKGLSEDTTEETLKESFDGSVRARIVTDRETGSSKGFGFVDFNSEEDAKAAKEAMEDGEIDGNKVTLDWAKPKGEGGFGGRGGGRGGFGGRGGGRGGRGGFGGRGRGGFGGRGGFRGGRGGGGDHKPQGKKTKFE
experimental.readout: pKd
Numbers only, as −log10 of the molar value.

*Q* Which measured pKd belongs to GGAAGAGGGAUGGGCACGGUCCAGCGCUAACUGUACCUGCUGUGCCACCCACC [Ev5] , tested on nucleolin on surface of HCT116 p53-/- cells (Homo sapiens) (UniProt P19338)?
*A* 7.29

###

biological target: nucleolin on surface of HCT116 p53-/- cells (Homo sapiens) (UniProt P19338); assay: flow; conditions: 2'-F pyrimidines; unit inferred; DL650-labeled Ev3, HCT116 p53-/- cells; Bmax 3.214
experimental.readout: Kd

*Q* Return Kd measured with nucleolin on surface of HCT116 p53-/- cells (Homo sapiens) (UniProt P19338) given this sequence: GGGAGAGAGGAAGAGGGAUGGGCACGGUCCAGCGCUAACUGUACCUGCUGUGCCACCCACCG [Ev3]
*A* 119 nM
